Tested on: HS 578T breast
Assay: NCI-60 one-dose screen, 48 h
Conditions: 10 µM
About 83,000 compounds went through this panel and 20% of them were active in at least one assay; those are over-represented in the sample as a whole. Active and inactive are the calls of the source. How the source made its calls: active means growth percent below 10; inactive means the rest.
Outcome codes: 1 (active), -1 (inactive)

compound	group
COc1cc(/C=C/C(=O)c2cc(OC)c(OC)c(OC)c2)ccc1Oc1nc(Nc2ccc(F)cc2)nc(N(C)C)n1	-1
Cc1ccc(/C=C/C(=O)c2ccc(NC(=O)CSc3nnc(-c4c[nH]c5ccccc45)n3-c3ccccc3)cc2)cc1	-1
CCCn1c(=O)c2[nH]c(-c3ccc(OCc4nc5ccc(C)cc5[nH]4)cc3)nc2n(CCC)c1=O	1
O=C1c2ccccc2C(=O)c2c1c(C(=O)c1ccc(Cl)cc1)n1c2ccc2c3ccccc3ccc21	-1
COc1ccc(C(C)=C(c2ccc(OCCCN(C)C)cc2)c2ccc(OCCCN(C)C)cc2)cc1	1
Nc1nc(Nc2ccccc2)nn1Cc1c(Cl)cccc1Cl	-1
CN1CCN(c2ccc(Nc3nc(N4CCN(S(=O)(=O)c5ccc(F)cc5)CC4)c4sccc4n3)cc2)CC1	1
O=c1[nH]c2ccccc2cc1CSc1ccc(Nc2nccc(-c3ccc4ccccc4c3)n2)cc1	-1
COc1ccc(-c2c(N)c(=O)n(C)c3ccccc23)cc1	-1
CC(=O)Nc1ccc(-c2cn(-c3cccc(C(=O)Nc4ccc(F)c(C(F)(F)F)c4)c3)nn2)cn1	1
O=C1Nc2cc(Cl)ccc2/C1=C/c1cccc(OCc2ccccc2)c1	1
O=C1Nc2cc(-c3ccc(NC(=O)c4cccs4)cc3)ccc2/C1=C/c1ccc[nH]1	-1
O=C(CNc1nc(-c2ccccc2)cs1)Nc1ccc(Br)cc1	-1
COc1ccc(C2NC(=S)NC(C)=C2C(=O)OC(C)C)cc1OC (stereo not drawn)	-1
COc1ccc(/C=C/C(=O)c2ccc(NC(=O)CN3C(=O)NC(C)(c4ccccc4)C3=O)cc2)cc1 (stereo not drawn)	-1
Clc1cccc(N/N=C/c2c[nH]c3ccccc23)n1	-1
COc1cc(NC(=O)c2cc(-c3ccc(F)cc3F)ccc2O)cc(OC)c1OC	-1
CN(CCO)c1oc(-c2ccccc2)nc1[P+](c1ccccc1)(c1ccccc1)c1ccccc1	1
CCN1CCN(c2ccc(NC(=O)Nc3ccc(-c4cc(C(=O)NC(C)C)c5ncccc5n4)cc3)cc2C(F)(F)F)CC1	1
Cc1ccc(-c2ccc(SCC(=O)Nc3ccc(S(N)(=O)=O)cc3Br)nn2)cc1	-1
COc1cnc2c(c1)C(=O)c1c-2n(CCCNC(C)C)c(=O)c2cc(OC)c(OC)cc12	-1
OCc1[nH]nc2cc(Nc3ncc4ccc(Br)c(OC5CCC(O)CC5)c4n3)ccc12 (stereo not drawn)	1
NC1=NC(c2ccccc2Cl)N=C(Nc2nn[nH]n2)N1 (stereo not drawn)	-1
COc1cccc(/C=C2\N=C(C)N(CCc3ccc(S(N)(=O)=O)cc3)C2=O)c1	-1
Brc1ccc(N/N=C/c2c[nH]c3ccccc23)nc1	-1
C=C(C)[C@@H]1CC[C@]2(C)[C@H](CC=C3[C@@H]4CC(C)(C)CC[C@]4(C(=O)N4CCOCC4)CC[C@]32C)[C@@]1(C)CCCN	1
COc1cccc(/C=N/NC(=O)c2ccc3nc(-c4ccc(Cl)cc4)[nH]c3c2)c1O	1
CC(=C(c1ccc(OCCN2CCCCC2)cc1)c1ccc(OCCN2CCCCC2)cc1)c1ccccc1	-1
O=c1c2ccccc2nc(COc2ccccc2)n1/N=C/c1ccc(F)cc1	-1
CC(=O)OC[C@@]1(C)C2CC[C@]3(C)C(CC=C4C5CC(C)(C)CC[C@]5(C(=O)Nc5ccccc5)CC[C@]43C)[C@@]2(C)C[C@@H](OC(C)=O)[C@@H]1OC(C)=O (stereo partly drawn)	-1
O=C(Nc1ccc(F)c(Cl)c1)c1cc(-c2ccc(F)cc2F)ccc1O	1
COC(=O)C(Cc1ccc(O)c(O)c1)NC(=O)C(CSC/C=C(\C)CCCC(C)CCCC(C)CCCC(C)C)NC(C)=O (stereo not drawn)	-1
O=C(CN1CCN(c2ncnc3c2cnn3-c2ccccc2)CC1)Nc1nncs1	1
O=C1Nc2ccc(Cl)cc2/C1=C/c1ccc(OCc2ccccn2)cc1	-1
COc1ccc2[nH]c(=O)c(CSc3cccc(N)c3)cc2c1	-1
Cn1cc(-c2cc(N)n3nc(-c4c[nH]c5ccc(Br)cc45)cc3n2)c2cc(Br)cnc21	1
Cc1ccc(C(C)C)cc1NC(=O)c1ccccc1O	-1
COc1cc2c3c(n(CCCn4ccnc4)c(=O)c2cc1OC)-c1nc2c(cc1C3=O)OCO2	-1
